System: OVCAR-3 ovarian
protocolText: NCI tumour cell line growth inhibition, 48 h
Entries annotated with measured TGI

compound	TGI
S=C(/C=C1\SC(=Nc2ccccc2)C(=Nc2ccccc2)N1c1ccccc1)Nc1ccccc1	> 100 µM
COC(=O)C(CC(=O)c1ccccc1)c1ccccc1NC(C)=O (stereo not drawn)	> 100 µM
O=[N+]([O-])O	> 100 µM
COc1ccc2c(c1)[n+]([O-])c(-c1c(Cl)cccc1Cl)c(N)[n+]2[O-]	> 100 µM
COc1cc2c(cc1OC)C1Cc3sccc3CN1CC2 (stereo not drawn)	> 100 µM
CCCCNc1nc2nc[nH]c2c(=O)[nH]1	> 100 µM
O=S1CCN(Cc2ccc(-c3ccc4ncnc(Nc5ccc(OCc6ccccc6)c(Cl)c5)c4c3)o2)CC1	> 25 µM
CN(C)CCNC(=O)c1ccc(Cl)c2ccc(-c3ccccc3)nc12	19.4 µM
O=C1/C(=C/c2ccc(Cl)cc2)COc2ccc(O)cc21	3.55 µM
O=C(Nc1ccccc1-c1nn(CO)c(=S)n(CO)c1=O)C(F)(F)F	> 100 µM
O=C(Oc1cccc2cccnc12)c1cc2cc(CCl)ccc2oc1=O	> 100 µM
c1ccc(CSc2nc(N3CCCCC3)c3cn[nH]c3n2)cc1	69.1 µM
O=c1c2ccccc2nc2n1CCc1c-2[nH]c2ccc(Br)cc12	> 100 µM
COC(OC)(c1ccccc1)C(Br)Br	> 100 µM
CCOC(=O)NC1C2CC(=O)C(O2)C1OCc1ccccc1 (stereo not drawn)	> 100 µM
Cn1c(=O)c2nc3c4ccccc4c(=O)n(C)c3nc2n(C)c1=O	> 100 µM
COc1cc2cccc(N=Cc3ccccc3Cl)c2cc1OC	> 100 µM
O=C(O)CNC(=O)C(CSC(=O)OCC1c2ccccc2-c2ccccc21)NC(=O)CCC(NC(=O)OCC1c2ccccc2-c2ccccc21)C(=O)O (stereo not drawn)	> 100 µM
COc1cc(C2=NNC(c3ccc(N(C)C)cc3)C2)cc(OC)c1OC (stereo not drawn)	> 100 µM
COc1cc2c(c(OC)c1OC)-c1cccc(=O)cc1C(NC(C)=O)CC2 (stereo not drawn)	1.16 µM
Cc1ccc(C2(c3ccc(C)cc3)SC(=C(C#N)C#N)c3ccccc32)cc1	> 100 µM
CCN(Cc1ccncc1)c1ccc(CO)c(Cl)c1	4.67 µM
O=C(N/N=C(/COc1ccccc1Cl)N=Cc1cccnc1)c1ccncc1	> 100 µM
O=[N+]([O-])c1cccnc1NCC1(CO)CCCC1	46 µM
COc1cc(C(=O)/C=C/c2ccc(OCCCCCC[P+](c3ccccc3)(c3ccccc3)c3ccccc3)cc2)cc(OC)c1OC	1.16 µM
CCOC(=O)NC(Nc1ncn(C(NC(=O)OCC)(C(F)(F)F)C(F)(F)F)n1)(C(F)(F)F)C(F)(F)F	> 100 µM
COc1ccc2nc3ccccc3c(NCCN(C)CCCl)c2c1	3.29 µM
O=C(O/N=C1/CCCC/C1=C\c1ccccc1)c1ccc(Cl)c(Cl)c1	41 µM
CC(C)(/C=N\O)NO	> 10 µM
Cc1ccc(/C=N/Nc2ccccn2)s1	> 100 µM
COC(=O)c1c(OC(C)=O)ccc2c1c1c(OC(C)=O)c3ccccc3c(OC(C)=O)c1n2C	44.5 µM
Cc1cc(OCC(O)CO)ccc1-c1ccccc1 (stereo not drawn)	> 100 µM
Cc1ccc(Nc2nc3nc[nH]c3c(=O)[nH]2)cc1CO	29.2 µM
O=C(NNC(=O)c1ccccc1O)c1ccccc1O	> 100 µM
C=C1C(=O)O[C@H]2[C@H]1CC/C(COC(=O)CCCCCCC(=O)OC/C1=C/CC[C@@]3(C)O[C@H]3[C@H]3OC(=O)C(=C)[C@@H]3CC1)=C\CC[C@@]1(C)O[C@@H]21	10 µM
CC1=CN(c2ccccc2)S2=C1c1sc3c(c1N2c1ccc(Br)cc1)CCCC3 (stereo not drawn)	> 100 µM
CC(=O)N1CCc2[nH]c3ccccc3c2CC1	> 100 µM
O=C(NCCCCNC(=O)OCc1ccc2c(Cl)cc(Cl)c(O)c2n1)OCc1ccc2c(Cl)cc(Cl)c(O)c2n1	> 100 µM
CCOC(=O)c1nc2cc(C(F)(F)F)ccc2nc1Nc1cc(OC)c(OC)c(OC)c1	> 100 µM
C=Cc1ccccc1 (tested in a mixture with another compound)	> 75 µg/mL
C/C=C/[C@@H]1[C@H]2C(=O)[C@]3(Cl)[C@@H](/C=C/C)[C@@H]3C(=O)[C@@]12Cl	> 100 µM
COc1ccc(-c2cc(-c3ccccc3)nc(/N=C\c3ccccc3)n2)c(O)c1	> 100 µM
Cc1ccc(-c2c(C#N)[n+](=O)c3cc(Cl)c(Cl)cc3n2[O-])cc1	23.5 µM

# credit: PubChem BioAssay (NCI)
